tgt: EGFR (UniProt P00533)
Sequence (P00533 whole entry, looked up): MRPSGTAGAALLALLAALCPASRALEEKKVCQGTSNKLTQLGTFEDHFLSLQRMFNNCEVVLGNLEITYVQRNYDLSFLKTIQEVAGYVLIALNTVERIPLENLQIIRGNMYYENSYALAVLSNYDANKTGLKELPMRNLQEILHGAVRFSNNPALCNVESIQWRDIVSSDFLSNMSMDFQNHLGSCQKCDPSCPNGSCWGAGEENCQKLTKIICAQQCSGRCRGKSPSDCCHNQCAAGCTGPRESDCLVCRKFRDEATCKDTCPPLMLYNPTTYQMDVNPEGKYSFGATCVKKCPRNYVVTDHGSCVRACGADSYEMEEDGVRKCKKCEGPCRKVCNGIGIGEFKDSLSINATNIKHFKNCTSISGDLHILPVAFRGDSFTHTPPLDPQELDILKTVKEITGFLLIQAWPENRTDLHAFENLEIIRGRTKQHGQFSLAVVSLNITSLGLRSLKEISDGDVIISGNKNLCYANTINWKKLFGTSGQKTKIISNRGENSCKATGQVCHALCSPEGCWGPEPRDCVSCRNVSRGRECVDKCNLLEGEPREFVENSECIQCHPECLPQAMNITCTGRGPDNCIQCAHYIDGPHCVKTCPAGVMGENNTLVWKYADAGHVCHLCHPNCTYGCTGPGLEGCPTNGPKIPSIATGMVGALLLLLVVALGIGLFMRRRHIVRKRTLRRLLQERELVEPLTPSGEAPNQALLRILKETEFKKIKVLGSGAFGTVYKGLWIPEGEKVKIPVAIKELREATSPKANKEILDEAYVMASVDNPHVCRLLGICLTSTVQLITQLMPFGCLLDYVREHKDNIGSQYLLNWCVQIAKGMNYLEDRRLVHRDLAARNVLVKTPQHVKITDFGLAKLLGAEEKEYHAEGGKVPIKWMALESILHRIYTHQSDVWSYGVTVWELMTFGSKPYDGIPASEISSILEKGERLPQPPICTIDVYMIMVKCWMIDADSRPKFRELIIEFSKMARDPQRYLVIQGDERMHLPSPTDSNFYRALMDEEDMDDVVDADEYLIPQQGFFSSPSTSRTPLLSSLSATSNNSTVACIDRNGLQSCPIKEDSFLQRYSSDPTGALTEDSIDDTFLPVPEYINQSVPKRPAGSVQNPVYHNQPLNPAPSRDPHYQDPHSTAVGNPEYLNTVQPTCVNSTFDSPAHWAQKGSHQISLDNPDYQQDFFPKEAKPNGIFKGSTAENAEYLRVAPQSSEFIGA
readout: IC50

Record excerpt, results attached:
>>> print(df.to_string())
                                   compound           reading
0  O=c1[nH]c2ccccc2n1-c1ncnc(Nc2ccc(F)c(Cl)c2)n1       > 4.5 µg/mL
1  CCOC(=O)c1cccc(Nc2ncnc(Nc3cc(-c4ccc(C(=O)OC)cc4)n[nH]3)n2)c1       > 4.5 µg/mL
2  COc1cc(Nc2ncnc(N3CCc4ccc([N+](=O)[O-])cc43)n2)cc(OC)c1OC       > 4.5 µg/mL
3  COc1cc(Nc2ncnc(-n3c(NCc4ccc(C(F)(F)F)cc4)nc4ccccc43)n2)cc(OC)c1OC       > 4.5 µg/mL
4  COc1cc(Nc2ncnc(Nc3cc(-c4ccc(Cl)c(Cl)c4)n[nH]3)n2)cc(OC)c1OC  2.4 to 3.5 µg/mL
5  COc1ccc(Nc2ncnc(Nc3ccc4c(c3)C(=O)N(C)C4=O)n2)cc1OC       > 4.5 µg/mL
6  COc1cc(Nc2ncnc(Nc3ccc(C(C)=O)cc3)n2)cc(OC)c1OC  2.4 to 3.5 µg/mL
7  COC(=O)c1ccc(-c2cc(Nc3ncnc(NCCc4c[nH]c5ccccc45)n3)[nH]n2)cc1  0.4 to 2.4 µg/mL

Now, please, on to the next compound.
Bench note, EGFR (UniProt P00533): entry "COc1cc(Nc2ncnc(-n3nc(-c4ccccc4)cc3N)n2)cc(OC)c1OC" , its IC50 = > 4.5 µg/mL

###

tgt: EGFR (UniProt P00533)
readout: IC50

Record excerpt, results attached:
>>> print(df.to_string())
                               input_smiles  readout           reading
0     COc1cc(Nc2ncnc(Nc3nccs3)n2)cc(OC)c1OC     IC50       > 4.5 µg/mL
1  CNS(=O)(=O)Cc1ccc(Nc2ncnc(Nc3ccc4c(cnn4Cc4ccccc4)c3)n2)cc1     IC50  0.4 to 2.4 µg/mL
2  COc1cc(Nc2ncnc(-c3cccnc3NC3CCCCC3)n2)cc(OC)c1OC     IC50       > 4.5 µg/mL
3    Cc1cccc(Nc2ncnc(N(C)c3cccc(Br)c3)n2)c1     IC50       < 0.4 µg/mL
4  COc1cccc(Nc2ncccc2-c2ncnc(Nc3cc(OC)c(OC)c(OC)c3)n2)c1     IC50  3.5 to 4.5 µg/mL
5  OCCCNc1cc(-c2ncnc(Nc3cccc(OC(F)(F)C(F)F)c3)n2)ccn1     IC50       > 4.5 µg/mL
6  COc1cc(Nc2ncnc(-n3c(N(C)C)nc4ccccc43)n2)cc(OC)c1OC     IC50       > 4.5 µg/mL
7  COc1cc(Nc2ncnc(N(Cc3ccccc3)c3nc4ccccc4[nH]3)n2)cc(OC)c1OC     IC50  2.4 to 3.5 µg/mL

Field IC50 (entry "COc1cc(Nc2ncnc(-c3ccc(NCc4ccccc4)nc3)n2)cc(OC)c1OC" ) reads > 4.5 µg/mL

Field IC50 (entry "Fc1ccc(Nc2ncnc(-n3cccc3)n2)cc1" ) reads > 4.5 µg/mL

Field IC50 (entry "COc1cc(Nc2ncnc(-n3c(NCCO)nc4ccccc43)n2)cc(OC)c1OC" ) reads > 4.5 µg/mL

Field IC50 (entry "COC(=O)Cc1cccc(Nc2ncnc(-n3c(N)nc4ccccc43)n2)c1" ) reads 2.4 to 3.5 µg/mL

Field IC50 (entry "COc1ccc(Nc2ncnc(N(C)c3ccc(Cl)cc3)n2)cc1OC" ) reads < 0.4 µg/mL

Field IC50 (entry "COc1cc(Nc2ncnc(-n3c(Nc4cccc(C)c4)nc4ccccc43)n2)cc(OC)c1OC" ) reads > 4.5 µg/mL

Field IC50 (entry "O=c1[nH]c2ccccc2n1-c1ncnc(Nc2ccc(Cl)cc2)n1" ) reads > 4.5 µg/mL

Field IC50 (entry "CC(C)Nc1ncccc1-c1ncnc(Nc2cccc(Cn3ccnn3)c2)n1" ) reads 2.4 to 3.5 µg/mL

Field IC50 (entry "COc1cc(Nc2ncnc(N3CCN(C)CC3)n2)cc(OC)c1OC" ) reads > 4.5 µg/mL

Field IC50 (entry "COc1ccc(Nc2ncnc(Nc3ccc4c(c3)C(=O)OC4)n2)cc1OC" ) reads 2.4 to 3.5 µg/mL

Field IC50 (entry "COc1cc(Nc2ncnc(Nc3c(C)n(C)n(-c4ccccc4)c3=O)n2)cc(OC)c1OC" ) reads > 4.5 µg/mL

Field IC50 (entry "COc1cc(Nc2ncnc(-n3c(NCc4cccc(Cl)c4)nc4ccccc43)n2)cc(OC)c1OC" ) reads > 4.5 µg/mL

Field IC50 (entry "COC(=O)c1ccc(-c2cc(Nc3ncnc(Nc4cc(F)cc(F)c4)n3)[nH]n2)cc1" ) reads > 4.5 µg/mL

Field IC50 (entry "COc1cc(Nc2ncnc(Nc3cc(-c4ccc(C(=O)NCCc5ccccc5)cc4)n[nH]3)n2)cc(OC)c1OC" ) reads > 4.5 µg/mL

Field IC50 (entry "NC(=O)c1ccc(Nc2ncnc(Nc3cc(-c4ccco4)n[nH]3)n2)cc1" ) reads 2.4 to 3.5 µg/mL

Field IC50 (entry "COc1cc(Nc2ncnc(-n3c(NC(C)C)nc4ccccc43)n2)cc(OC)c1OC" ) reads > 4.5 µg/mL

Field IC50 (entry "Cc1ccc2c(c1)CCCN2c1ncnc(Nc2ccc(F)c(F)c2)n1" ) reads 0.4 to 2.4 µg/mL

Field IC50 (entry "Fc1cccc(Nc2ncnc(-c3cccs3)n2)c1" ) reads > 4.5 µg/mL

###

As shown below, each of these compounds has a reported IC50 value.
tgt: UniProt:P00533

                                   compound             tgt      reading
0  c1ccc(Cn2ncc3cc(Nc4ncnc(NCCN5CCCC5)n4)ccc32)cc1  UniProt:P00533  > 4.5 µg/mL

Bench note, UniProt:P00533: entry "COc1ccc(CNc2nc3ccccc3n2-c2ncnc(Nc3cccc(CC(=O)O)c3)n2)cc1" , its IC50 = > 4.5 µg/mL

Bench note, UniProt:P00533: entry "COC(=O)c1ccc(-c2cc(Nc3ncnc(NCc4ccccc4OC)n3)[nH]n2)cc1" , its IC50 = > 4.5 µg/mL

Bench note, UniProt:P00533: entry "NC(=O)c1ccc(Nc2ncnc(-n3c(N)nc4ccccc43)n2)cc1" , its IC50 = 2.4 to 3.5 µg/mL

Bench note, UniProt:P00533: entry "COc1cc(Nc2ncnc(Nc3ccc(Cl)cc3F)n2)cc(OC)c1OC" , its IC50 = < 0.4 µg/mL

###

Below are IC50 values recorded for EGFR (UniProt P00533).

Record excerpt, results attached:
>>> print(df.to_string())
                               input_smiles  readout           reading
0  COc1ccc(Nc2ncnc(N(C)[C@H](C)c3ccccc3)n2)cc1OC     IC50  0.4 to 2.4 µg/mL
1  COc1cc(Nc2ncnc(-c3ccc(NCCCN)nc3)n2)cc(OC)c1OC     IC50       > 4.5 µg/mL
2  COC(=O)c1ccc(-c2cc(Nc3ncnc(Nc4cccc5ncccc45)n3)[nH]n2)cc1     IC50       > 4.5 µg/mL
3  COc1cc(Nc2ncnc(-n3c(Nc4cccc(F)c4)nc4ccccc43)n2)cc(OC)c1OC     IC50  2.4 to 3.5 µg/mL
4  COC(=O)c1cccc(Nc2ncnc(Nc3cc(-c4ccco4)n[nH]3)n2)c1     IC50       > 4.5 µg/mL
5  COc1cc(Nc2ncnc(Nc3ccc(Br)cc3F)n2)cc(OC)c1OC     IC50       < 0.4 µg/mL
6  COc1cc(Nc2ncnc(Nc3ccc(N(C)C(C)=O)cc3)n2)cc(OC)c1OC     IC50       > 4.5 µg/mL
7  O=c1[nH]c2ccccc2n1-c1ncnc(Nc2cccc([N+](=O)[O-])c2)n1     IC50       > 4.5 µg/mL
8  COc1cc(Nc2ncnc(Nc3[nH]ncc3-c3cccs3)n2)cc(OC)c1OC     IC50       > 4.5 µg/mL
9  COc1cc(Nc2ncnc(Nc3ccc4[nH]ncc4c3)n2)cc(OC)c1OC     IC50       < 0.4 µg/mL

Bench note, EGFR (UniProt P00533): entry "COc1cc(Nc2ncnc(-n3c(Nc4ccc(C#N)cc4)nc4ccccc43)n2)cc(OC)c1OC" , its IC50 = > 4.5 µg/mL

Bench note, EGFR (UniProt P00533): entry "COc1cc(Nc2ncnc(N(CC(=O)O)c3ccc4c(c3)OCO4)n2)cc(OC)c1OC" , its IC50 = 0.4 to 2.4 µg/mL

Bench note, EGFR (UniProt P00533): entry "COc1cc(Nc2ncnc(-c3ccc(F)cc3)n2)cc(OC)c1OC" , its IC50 = > 4.5 µg/mL

Bench note, EGFR (UniProt P00533): entry "COc1cc(Nc2ncnc(-n3c(=O)sc4ccccc43)n2)cc(OC)c1OC" , its IC50 = > 4.5 µg/mL
